# test-summary: Surrogate Activity-Based Plasma Stability Assay
# Format: in vitro ADME
# test-parameters: rat, read-out: Surrogate activity-based Plasma stability t½
Where a SMILES comes first, the peptide text is derived from it. [ ]: non-standard residue; d: D form. The star is where a group is joined. pGlu = O=C1CC[C@@H](C(=O)O)N1; dNle = CCCC[C@@H](N)C(=O)O; Bn = c1ccc(C*)cc1
measured-metric: half-life
I'd appreciate it if you included the unit after the number.

Item under review: CCCC[C@@H](NC(=O)[C@@H]1CCCN1C(=O)CNC(=O)[C@H](CCCCN)NC(=O)[C@H](Cc1c[nH]cn1)NC(=O)[C@@H](C)NC(=O)[C@H](Cc1ccc(OCc2ccccc2)cc1)NC(=O)[C@H](CCCNC(=N)N)NC(=O)[C@@H]1CCCN1C(=O)[C@H](CCCNC(=N)N)NC(=O)[C@@H]1CCC(=O)N1)C(=O)N[C@H](C)C(=O)N[C@H](Cc1ccccc1)C(=O)O [Example 27, pE-R-P-R-Y(Bzl)-a-H-K-G-P-nle-a-f-OH] ([pGlu]RPRY(Bn)[dA]HKGP[dNle][dA][dF]-OH) . Reported half-life?
5.81 h

The origin of these recorded values is patent US8921307B2.
